assay: Antioxidant activity assessed as DPPH free radical scavenging activity after 60 mins; type: functional
pIC50: −log10 of the molar value.
Value Kind: pIC50

Consider the reported pIC50 for these molecules:
[[record]]
molecule = "COc1cc(/C=C/C(=O)CC(=O)/C=C/c2ccc(O)c(OC)c2)ccc1O"
obs_value = 4.49

[[record]]
molecule = "Cc1c(C)c2c(c(C)c1O)CCC(C)(C(=O)O)O2 (centres undefined)"
obs_value = 4.28


a = N#CC(C#N)C(/C=C/c1ccccc1)CC(=O)c1ccccc1 (centres undefined)
b = O=C(/C=C/C=C/c1ccc(O)cc1)c1ccccc1
For the two items a and b , which reports the higher pIC50 value? // return label of chosen record b
(b: 4.49, a: 4.13)
